For each record, write down the corresponding EC50.
- target.under.test: UniProt:P30989
- experimental.details: NTR1 dose response, high-content imaging beta-arrestin-GFP assay in NTR1-U2OS cells
- Type: cell-based
- applied.conditions: read-out: EC50

For the record COc1ccccc1C1CCN(c2nc(C3(F)CC3)nc3ccc(N4CC[C@@H](O)C4)cc23)CC1 , what value of EC50 is listed for UniProt:P30989?
0.5 to 2 µM

For the record COc1ccccc1C1CCN(c2nc(C3(C(F)(F)F)CCC3)nc3ccc(N(C)CCN4CCOCC4)cc23)CC1 , what value of EC50 is listed for UniProt:P30989?
> 10 µM

For the record CCCN(C)c1ccc2nc(C3CC3)nc(N3CCN(C4CCCC4OC)CC3)c2c1 (stereo not shown) , what value of EC50 is listed for UniProt:P30989?
> 10 µM

For the record COC1CCCC1N1CCN(c2nc(C3CC3)nc3ccc(N(C)CCO)cc23)CC1 (stereo not shown) , what value of EC50 is listed for UniProt:P30989?
> 10 µM

For the record COc1ccccc1C1CCN(c2nc(C3(F)CC3)nc3ccc(N(C)CCN4CCOCC4)cc23)CC1 , what value of EC50 is listed for UniProt:P30989?
0.5 to 2 µM

For the record COc1cc(F)ccc1C1CCN(c2nc(C3CC3)nc3cc(C)c(N(C)CCO)cc23)CC1 , what value of EC50 is listed for UniProt:P30989?
2 to 10 µM

For the record COc1ccccc1C1CCN(c2nc(C3(F)CCC3)nc3cnc(N4CC[C@H](O)C4)cc23)CC1 , what value of EC50 is listed for UniProt:P30989?
2 to 10 µM

For the record CN(C)c1ccccc1C1CCN(c2nc(C3CC3)nc3cc(F)c(N(C)CCO)cc23)CC1 , what value of EC50 is listed for UniProt:P30989?
< 0.5 µM

For the record COc1ccccc1C1CCN(c2nc(C3(C(F)(F)F)CC3)nc3ccc(N(C)CCN4CCOCC4)cc23)CC1 , what value of EC50 is listed for UniProt:P30989?
2 to 10 µM

For the record COc1ccccc1C1CCN(c2nc(C3CC3)nc3cc(N(C)CCO)ccc23)CC1 , what value of EC50 is listed for UniProt:P30989?
2 to 10 µM

For the record COc1ccccc1C1CCN(c2nc(C3(F)CC3)nc3cnc(N4CC[C@H](O)C4)cc23)CC1 , what value of EC50 is listed for UniProt:P30989?
0.5 to 2 µM

For the record CCN(C)c1ccc2nc(C3CC3)nc(N3CCN(c4ccccc4N4CCC4)CC3)c2c1 , what value of EC50 is listed for UniProt:P30989?
0.5 to 2 µM

For the record CCCN(C)c1ccc2nc(C3CC3)nc(NC3CCCC3N(C)c3ccccc3OC)c2c1 (stereo not shown) , what value of EC50 is listed for UniProt:P30989?
> 10 µM

For the record COc1ccccc1C1CCN(c2nc(C3(F)CC3)nc3ccc(N(C)CCO)cc23)CC1 , what value of EC50 is listed for UniProt:P30989?
< 0.5 µM

For the record COc1ccccc1C1CCN(c2nc(C3(F)CCC3)nc3c(Cl)cc(N(C)CCO)cc23)CC1 , what value of EC50 is listed for UniProt:P30989?
0.5 to 2 µM

For the record CN(CCN1CCOCC1)c1ccc2nc(C3(C)CC3)nc(N3CCC(c4ccccc4N4CCC4)CC3)c2c1 , what value of EC50 is listed for UniProt:P30989?
> 10 µM

###

For each record, write down the corresponding pEC50.
- target.under.test: UniProtKB P30989
- experimental.details: NTR1 dose response, high-content imaging beta-arrestin-GFP assay in NTR1-U2OS cells
- Format: cell-based
- applied.conditions: read-out: EC50
pEC50: −log10 of the molar value.

Field request: pEC50 | item: COc1ccccc1C1CCN(c2nc(C3CCCC3)nc3ccc(N(C)CCO)cc23)CC1 [Example 38]
5.00 to 5.70

Field request: pEC50 | item: CN(CCN1CCOCC1)c1ccc2nc(C3CC3)nc(N3CCN(C4CCCC4O)CC3)c2c1 (stereo not shown) [Example 142]
< 5.00

Field request: pEC50 | item: COc1nccnc1C1CCN(c2nc(C3(CF)CC3)nc3ccc(N(C)CCO)cc23)CC1 [Example 219]
5.70 to 6.30

Field request: pEC50 | item: COc1cccnc1N1CCN(c2nc(C3(F)CC3)nc3ccc(N(C)CCO)cc23)CC1 [Example 209]
5.00 to 5.70

###

- target.under.test: neurotensin receptor 1 (NTR1) (Homo sapiens (Human), UniProt P30989)
- Sequence (P30989 whole entry, species assumed): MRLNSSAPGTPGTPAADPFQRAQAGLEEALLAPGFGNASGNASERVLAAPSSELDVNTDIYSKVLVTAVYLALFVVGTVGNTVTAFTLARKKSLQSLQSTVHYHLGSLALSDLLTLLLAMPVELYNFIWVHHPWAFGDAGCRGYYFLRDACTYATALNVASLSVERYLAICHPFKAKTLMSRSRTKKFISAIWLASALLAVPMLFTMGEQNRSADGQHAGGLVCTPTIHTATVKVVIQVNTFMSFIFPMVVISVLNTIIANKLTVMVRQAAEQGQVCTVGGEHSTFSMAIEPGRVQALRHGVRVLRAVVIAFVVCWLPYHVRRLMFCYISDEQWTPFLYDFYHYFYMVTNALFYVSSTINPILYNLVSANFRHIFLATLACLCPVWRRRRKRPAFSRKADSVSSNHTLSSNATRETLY
- experimental.details: NTR1 dose response, high-content imaging beta-arrestin-GFP assay in NTR1-U2OS cells
- Format: cell-based
- applied.conditions: read-out: EC50
pEC50: −log10 of the molar value.
measured.endpoint: pEC50

Field request: pEC50 | item: CCCN(C)c1ccc2nc(C3CC3)nc(N3CCC(c4ccccc4OC)CC3=O)c2c1 (stereo not drawn)
< 5.00

Field request: pEC50 | item: COc1ccccc1C1CCN(c2nc(C3CC3)nc3ccc(N4CCC(O)CC4)cc23)CC1
5.00 to 5.70

Field request: pEC50 | item: COc1ccccc1C1CCN(c2nc(C3(F)CC3)nc3cc(F)c(N(C)CCO)cc23)CC1
> 6.30

Field request: pEC50 | item: COc1ccccc1C1CCN(c2nc(C3(F)CC3)nc3ccc(N(C)CCOCCF)cc23)CC1
5.70 to 6.30

Field request: pEC50 | item: COC1CCCCC1C1CCN(c2nc(C3(F)CC3)nc3ccc(N(C)CCO)cc23)CC1 (stereo not drawn)
< 5.00

Field request: pEC50 | item: CCCN(C)c1ccc2c(N3CCC(c4ccccc4OC)CC3)nc(C3CC3)nc2c1 [Example 135]
< 5.00

Field request: pEC50 | item: COCCN(C)c1ccc2nc(C3CCCC3)nc(N3CCC(c4ccccc4OC)CC3)c2c1
< 5.00

Field request: pEC50 | item: COc1ccccc1C1CCN(c2nc(C3CC3)nc3ccc(N4CC[C@H](O)C4)cc23)CC1 [Example 173]
5.70 to 6.30

Field request: pEC50 | item: COc1ccc(F)cc1C1CCN(c2nc(C3CC3)nc3cc(Cl)c(N(C)CCO)cc23)CC1
5.00 to 5.70

Field request: pEC50 | item: COc1ccccc1C1CCN(c2nc(C3(F)CCC3)nc3c(Cl)cc(N4CC[C@@H](O)C4)cc23)CC1
5.00 to 5.70

Field request: pEC50 | item: COc1ccccc1C1CCN(c2nc(C3(C)CCCC3)nc3ccc(N(C)CCN4CCOCC4)cc23)CC1
5.00 to 5.70

Field request: pEC50 | item: CCCN(C)C(=O)Cc1cnc(C2CC2)nc1N1CCC(c2ccccc2OC)CC1
< 5.00

Field request: pEC50 | item: COc1ccccc1C1CCN(c2nc(C3CC3)nc(C)c2CC(=O)Nc2ccccc2)CC1
< 5.00

Field request: pEC50 | item: COc1ccccc1C1CCN(c2nc(-c3ccccc3)nc3ccc(N(C)C)cc23)CC1
< 5.00

Field request: pEC50 | item: COc1ccccc1C1CCN(c2nc(C3CC3)nc3cccc(N(C)CCO)c23)CC1
< 5.00

###

- target.under.test: neurotensin receptor 1 (NTR1) (Homo sapiens (Human), UniProt P30989)
- experimental.details: NTR1 dose response, high-content imaging beta-arrestin-GFP assay in NTR1-U2OS cells
- Type: cell-based
- applied.conditions: read-out: EC50
For each record, write down the corresponding EC50.

Field request: EC50 | item: COc1ccccc1C1CCN(c2nc(C3(C)CCCC3)nc3ccc(N(C)CCO)cc23)CC1
2 to 10 µM

Field request: EC50 | item: COC(=O)Cc1c(C)nc(C2CC2)nc1N1CCC(c2ccccc2OC)CC1
> 10 µM

Field request: EC50 | item: COc1ccccc1N1CC2(C1)CN(c1nc(C3CC3)nc3ccc(N(C)CCN4CCOCC4)cc13)C2
> 10 µM

Field request: EC50 | item: COc1ccccc1C1CCN(c2nc(C3CC3)nc3ccc(N(C)CC(=O)O)cc23)CC1
< 0.5 µM

Field request: EC50 | item: COc1ccccc1C1CCN(c2nc(C3(F)CC3)nc3cnc(N(C)CCO)cc23)CC1
< 0.5 µM

Field request: EC50 | item: COc1ccccc1C1CCN(c2nc(C3(C)CC3)nc3ccc(N(C)CCO)cc23)CC1
< 0.5 µM

Field request: EC50 | item: CN(CCN1CCCC1)c1ccc2nc(C3(C)CC3)nc(N3CCC(c4ccccc4N4CCC4)CC3)c2c1
> 10 µM

Field request: EC50 | item: COc1ccccc1C1CCN(c2nc(C3CC3)nc3ccc(N4CCC(O)C4)cc23)CC1 (stereo not drawn)
0.5 to 2 µM

Field request: EC50 | item: COc1ccc(F)cc1C1CCN(c2nc(C3CC3)nc3cc(C)c(N(C)CCO)cc23)CC1
2 to 10 µM

Field request: EC50 | item: CCCN(C)c1cccc2c(N3CCC(c4ccccc4OC)CC3)nc(C3CC3)nc12
> 10 µM

Field request: EC50 | item: Cc1cc2nc(C3CC3)nc(N3CCC(c4ccccc4N4CCC4)CC3)c2cc1N(C)CCO
0.5 to 2 µM

Field request: EC50 | item: COc1ccccc1C1CCN(c2nc(C)c(CC(=O)N(C)CCO)c(C3CC3)n2)CC1
> 10 µM

Field request: EC50 | item: COc1ccccc1C1CCN(c2nc(C3(C(F)(F)F)CCCC3)nc3ccc(N(C)CCO)cc23)CC1
2 to 10 µM

Field request: EC50 | item: COc1nccnc1C1CCN(c2nc(C3(O)CCC3)nc3ccc(N(C)CCO)cc23)CC1
> 10 µM

Field request: EC50 | item: CCCN(C)c1ccc2nc(NC3CCC3)nc(N3CCC(c4ccccc4OC)CC3)c2c1
> 10 µM

Field request: EC50 | item: CN(C)c1ccccc1C1CCN(c2nc(C3(C)CC3)nc3ccc(N(C)CCO)cc23)CC1
2 to 10 µM

Field request: EC50 | item: CN(C)c1ccccc1C1CCN(c2nc(C3(C(F)(F)F)CCCC3)nc3ccc(N(C)CCO)cc23)CC1
0.5 to 2 µM

Field request: EC50 | item: COc1ccccc1C1CCN(c2nc(C3CC3)nc3ccc(CN(C)CCN4CCOCC4)cc23)CC1
> 10 µM

Field request: EC50 | item: CN(CCO)c1ccc2nc(C3CC3)nc(N3CCC(c4ccccc4N4CCC4)CC3)c2c1
0.5 to 2 µM

Field request: EC50 | item: CN(C)c1ccccc1C1CCN(c2nc(C3(C)CCCC3)nc3ccc(N(C)CCN4CCOCC4)cc23)CC1
2 to 10 µM

Field request: EC50 | item: COc1ccccc1C1CCN(c2nc(C3(F)CCC3)nc3c(Cl)cc(N4CC[C@H](O)C4)cc23)CC1
2 to 10 µM
